Method summary: Selectivity index, ratio of CC50 for green monkey Vero76 cells to EC50 for Yellow fever virus
Format: toxicity, cell-based, Vero 76
Reported conditions: read-out: Ratio CC50/EC50
Listed here: items and their measured selectivity ratio.

                                   compound  result
0  O=C1C2=C(SCCS2)C(=O)N1CCCN1CCN(c2ccc(F)cc2)CC1  > 1.92

Input: Form field: reported selectivity ratio of COc1ccccc1N1CCN(CC(O)CN2C(=O)C3=C(SCCS3)C2=O)CC1 (centres undefined)
Output: > 1.33

Input: // lookup selectivity ratio for O=C1C2=C(SCCS2)C(=O)N1CC(O)CN1CCN(c2ccc(F)cc2)CC1 (centres undefined)
Output: > 1.25

Input: selectivity ratio lookup needed for O=C1C2=C(SCCS2)C(=O)N1CCCCN1CCN(c2ccccc2)CC1 , thanks.
Output: > 1.14

====

Method summary: Cytotoxicity against Cricetinae BHK21 (hamster normal kidney fibroblast) cells after 48 to 120 hr by MTT assay
Format: cell-based, Mesocricetus auratus, BHK-21
Reported conditions: BHK21 cells (normal kidney fibroblasts)
Quick reference: CC50 of the listed items.

Take a look at these entries with their results.
In [3]: df
Out[3]:
                                   compound  recorded_endpoint    result
0  O=C1C2=C(SCCS2)C(=O)N1CCCN1CCN(c2ccc(F)cc2)CC1               CC50  > 100 µM
1  O=C1C2=C(SCCS2)C(=O)N1CCCCN1CCN(c2ccc(F)cc2)CC1               CC50  > 100 µM
2  O=C1C2=C(SCCS2)C(=O)N1CC(O)CN1CCN(c2ccc(F)cc2)CC1 (configuration not stated)               CC50  > 100 µM

Here is the next item to consider.
Input: Give the measured CC50 of O=C1C2=C(SCCS2)C(=O)N1CCCCN1CCN(c2ccccc2)CC1 .
Output: > 100 µM

====

Reported EC50 values follow for various compounds
Test system: Coxsackievirus B2
Method summary: Antiviral activity against Human coxsackievirus B2 infected African green monkey Vero76 cells assessed as reduction of virus-induced plaque reduction after 3 days by MTT assay
Format: functional, organism-based
Reported conditions: Enterovirus B, Vero 76, 72 h

Here is how some compounds turned out for EC50.
In [3]: df
Out[3]:
                                   compound    result
0  O=C1C2=C(SCCS2)C(=O)N1CC(O)CN1CCN(c2ccc(F)cc2)CC1 (stereo not drawn)  > 100 µM
1  O=C1C2=C(SCCS2)C(=O)N1CCCCN1CCN(Cc2ccccc2)CC1  > 100 µM

Okay, next one:
Input: Recorded EC50 for COc1ccccc1N1CCN(CC(O)CN2C(=O)C3=C(SCCS3)C2=O)CC1 (stereo not drawn) , please?
Output: > 100 µM

====

Method summary: Cytotoxicity against Cricetinae BHK21 (hamster normal kidney fibroblast) cells after 48 to 120 hr by MTT assay
Type: cell-based, Mesocricetus auratus, BHK-21
Reported conditions: BHK21 cells (normal kidney fibroblasts)
CC50 for assorted compounds

                                   compound  recorded_endpoint    result
0  COc1ccccc1N1CCN(CC(O)CN2C(=O)C3=C(SCCS3)C2=O)CC1 (stereo not drawn)               CC50  > 100 µM

Input: Suppose we examine the compound O=C1C2=C(SCCS2)C(=O)N1CCCCN1CCN(Cc2ccccc2)CC1 ; what CC50 value has been reported?
Output: > 100 µM

Input: Can you share its CC50? I mean this compound: O=C1C2=C(SCCS2)C(=O)N1CCCCN1CCN(c2ccccn2)CC1
Output: > 100 µM
